Cited source for all entries: patent US5877210A

# study-system: PTP1B (Homo sapiens, UniProt P18031)
# Construct: purchased Upstate Biotechnology, Lake Placid, N.Y
# Sequence (P18031 whole entry, species assumed): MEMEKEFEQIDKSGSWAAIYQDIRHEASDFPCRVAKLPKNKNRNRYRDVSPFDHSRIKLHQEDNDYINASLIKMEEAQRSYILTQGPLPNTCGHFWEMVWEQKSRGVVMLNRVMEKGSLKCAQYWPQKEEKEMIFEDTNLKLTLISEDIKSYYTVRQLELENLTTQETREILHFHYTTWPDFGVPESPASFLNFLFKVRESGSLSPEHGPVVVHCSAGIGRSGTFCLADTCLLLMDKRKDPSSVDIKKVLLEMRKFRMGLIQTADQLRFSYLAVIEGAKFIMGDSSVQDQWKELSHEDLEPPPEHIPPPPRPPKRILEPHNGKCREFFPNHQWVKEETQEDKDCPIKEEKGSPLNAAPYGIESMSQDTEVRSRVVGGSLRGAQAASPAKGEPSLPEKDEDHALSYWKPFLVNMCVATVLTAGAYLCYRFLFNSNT
# procedure-details: Phosphotyrosine phosphatase PTP1B inhibition
# Type: biochemical
# stated-conditions: Table 8
measured-property: pIC50
pIC50 is a log-scale quantity: -log10 of the concentration expressed in molar.

Record "Cc1occc(=O)c1[O-].Cc1occc(=O)c1[O-].[O]=[V+2]" , field pIC50: 7.59

----------
# study-system: calf intestinal alkaline phosphatase
# procedure-details: Alkaline phosphatase inhibition
# Type: biochemical
# stated-conditions: Table 1; p-nitrophenyl phosphate substrate
measured-property: IC50

IC50 reading for "Cc1occc(=O)c1[O-].Cc1occc(=O)c1[O-].[O]=[V+2]" : > 500 µM
